For each of the compounds below, state its selectivity ratio.
# experimental details: Therapeutic index expressed as the ratio between CC50 and EC50
# Format: cell-based
# settings: human, HEp-2 cells; read-out: Therapeutic index

I'm hoping you can list selectivity ratio for every compound here, please.
1. CC(C)CCn1c(Cn2c(=O)n(Cc3ccc(C(=O)N(C)C)cc3)c3ccccc32)nc2ccccc21
2. CC(C)CCn1c(Cn2c(=O)n(CCCCCC#N)c3ccccc32)nc2ccccc21
3. N#CCCn1c(Cn2c(=O)n(-c3ccccc3)c3ccccc32)nc2ccccc21

A)
1. 1270
2. 536
3. 17400

I'm hoping you can list selectivity ratio for every compound here, please.
1. CC1(CCn2c(Cn3c(=O)n(Cc4ccc(O)cc4)c4ccccc43)nc3ccccc32)N=N1
2. CC(C)CCn1c(Cn2c(=O)n(S(=O)(=O)C(C)C)c3ccccc32)nc2ccccc21
3. CC(=O)CCn1c(Cn2c(O)nc3ccccc32)nc2ccccc21
4. CCn1c(=O)n(Cc2nc3ccccc3n2CCO)c2ccccc21
5. CC(C)CCn1c(Cn2c(=O)n(CC#N)c3ccccc32)nc2ccccc21
6. C=C(C)n1c(=O)n(Cc2nc3ccccc3n2CCC(C)=O)c2ccccc21
7. C=C(C)n1c(=O)n(Cc2nc3ccccc3n2CCCCCCO)c2ccccc21

A)
1: > 28000; 2: 260; 3: 1560; 4: 279; 5: 1670; 6: 48900; 7: > 2170

I'm hoping you can list selectivity ratio for every compound here, please.
1. OCCCCn1c(Cn2c(O)nc3ccccc32)nc2ccccc21
2. CC(O)CCn1c(Cn2c(O)nc3ccccc32)nc2ccccc21 (configuration not stated)

A)
["> 971", "> 629"]

###

# experimental details: Therapeutic index expressed as the ratio between CC50 and EC50
# Format: cell-based
# settings: human, HEp-2 cells; read-out: Therapeutic index
For each of the compounds below, state its selectivity ratio.

Field: example entries. Status: answers known.
CS(=O)(=O)CCCn1c(Cn2c(=O)n(CCCCO)c3ccccc32)nc2ccccc21: > 2490
CC(C)n1c(=O)n(Cc2nc3ccccc3n2CCCCCCC#N)c2ccccc21: > 37800

Kindly review the next compound as well.
The recorded selectivity ratio for CC(C)CCn1c(Cn2c(=O)n(Cc3ccc(S(=O)(=O)N(C)C)cc3)c3ccccc32)nc2ccccc21 is > 38200

###

# Tested on: HEp-2
# experimental details: Cytotoxic activity against uninfected HEp-2 human […] epithelial carcinoma cell line
# Format: functional
Assign labels as follows, please: criterion met for CC50 below 50 µM; criterion not met for CC50 equal to or exceeding 50 µM.

Some solved cases for reference:
CS(=O)(=O)CCCn1c(Cn2c(=O)n(CCCCC#N)c3ccccc32)nc2ccccc21: criterion not met
CC(C)CCn1c(Cn2c(=O)n(CC#N)c3ccccc32)nc2ccccc21: criterion met

Q) Lab note: confirm whether the reported CC50 for this molecule is below 50 µM, equality not counting. molecule: CC(C)CCn1c(Cn2c(=O)n(C(N)=O)c3ccccc32)nc2ccccc21
A) criterion not met

Q) Lab note: confirm whether the reported CC50 for this molecule is below 50 µM, equality not counting. molecule: C=C(C)n1c(=O)n(Cc2nc3ccccc3n2CCC(C)C)c2ccccc21
A) criterion met

Q) Lab note: confirm whether the reported CC50 for this molecule is below 50 µM, equality not counting. molecule: C=C(C)n1c(=O)n(Cc2nc3ccccc3n2CCCS(C)(=O)=O)c2ccccc21
A) criterion not met

Q) Lab note: confirm whether the reported CC50 for this molecule is below 50 µM, equality not counting. molecule: CC1(CCn2c(Cn3c(=O)n(Cc4cc(I)c(O)c(I)c4)c4ccccc43)nc3ccccc32)N=N1
A) criterion met

Q) Lab note: confirm whether the reported CC50 for this molecule is below 50 µM, equality not counting. molecule: CCn1c(=O)n(Cc2nc3ccccc3n2CCCO)c2ccccc21
A) criterion not met

Q) Lab note: confirm whether the reported CC50 for this molecule is below 50 µM, equality not counting. molecule: CCn1c(=O)n(Cc2nc3ccccc3n2CCC(C)C)c2ccccc21
A) criterion met

###

# System: HEp-2
# experimental details: Cytotoxic activity against uninfected HEp-2 human […] epithelial carcinoma cell line
# Type: functional
For each of the compounds below, state its log10(CC50).
Scale: log10; quantity: CC50; unit before log: µM

Field: example entries. Status: answers known.
CC(C)CCn1c(Cn2c(=O)n(CCCC#N)c3ccccc32)nc2ccccc21: 1.78
CC(C)CCn1c(Cn2c(=O)n(C(=O)NCc3ccccc3)c3ccccc32)nc2ccccc21: 0.81

I'm hoping you can list log10(CC50) for every compound here, please.
1. CC(C)CCn1c(Cn2c(=O)n(CCCCC#N)c3ccccc32)nc2ccccc21
2. C=C(C)n1c(=O)n(Cc2nc3ccccc3n2CCC(C)=O)c2ccccc21
3. CC(C)CCn1c(Cn2c(=O)n(C(=O)Nc3ccccc3)c3ccccc32)nc2ccccc21
4. CCOC(=O)n1c(=O)n(Cc2nc3ccccc3n2CCC(C)C)c2ccccc21
5. CC(C)n1c(=O)n(Cc2nc3ccccc3n2CCC#N)c2ccccc21

A)
1.18
2.39
1.33
1.76
1.87

###

# experimental details: Therapeutic index expressed as the ratio between CC50 and EC50
# Format: cell-based
# settings: human, HEp-2 cells; read-out: Therapeutic index
readout: selectivity ratio

Field: example entries. Status: answers known.
C=C(C)n1c(=O)n(Cc2nc3ccccc3n2CCCCCCC#N)c2ccccc21: > 6000
N#CCCn1c(Cn2c(O)nc3ccccc32)nc2ccccc21: > 3130
N#CCCCCn1c(=O)n(Cc2nc3ccccc3n2CCCC#N)c2ccccc21: > 9090
CS(=O)(=O)CCCn1c(Cn2c(=O)n(CCCCC#N)c3ccccc32)nc2ccccc21: > 3020

Kindly review the next compound as well.
The recorded selectivity ratio for CCn1c(=O)n(Cc2nc3ccccc3n2CC(O)c2ccccc2)c2ccccc21 (stereo not given) is > 6500

###

# Tested on: HEp-2
# experimental details: Cytotoxic activity against uninfected HEp-2 human […] epithelial carcinoma cell line
# Format: functional
readout: CC50

CS(=O)(=O)CCCn1c(Cn2c(=O)n(CCCCO)c3ccccc32)nc2ccccc21: > 229 µM
N#CCCn1c(Cn2c(O)nc3ccccc32)nc2ccccc21: > 310 µM
OCCCCn1c(Cn2c(O)nc3ccccc32)nc2ccccc21: > 168 µM
C=C(C)n1c(=O)n(Cc2nc3ccccc3n2CCCCCCO)c2ccccc21: > 247 µM

Kindly review the next molecule as well.
Measured CC50 for this entry CCn1c(=O)n(Cc2nc3ccccc3n2CC(O)c2ccccc2)c2ccccc21 (stereo not given) on HEp-2: > 241 µM

This collection of values is drawn from ChEMBL document CHEMBL1147583.
